Cited source: patent US10780084B2

molecular target: recombinant uPAR (Homo sapiens, UniProt Q03405); experiment: Competitive ELISA uPAR binding assay (displacement of uPAR from immobilized urokinase); details: ELISA assay, competition with urokinase for recombinant uPAR
Sequence (Q03405 23-305): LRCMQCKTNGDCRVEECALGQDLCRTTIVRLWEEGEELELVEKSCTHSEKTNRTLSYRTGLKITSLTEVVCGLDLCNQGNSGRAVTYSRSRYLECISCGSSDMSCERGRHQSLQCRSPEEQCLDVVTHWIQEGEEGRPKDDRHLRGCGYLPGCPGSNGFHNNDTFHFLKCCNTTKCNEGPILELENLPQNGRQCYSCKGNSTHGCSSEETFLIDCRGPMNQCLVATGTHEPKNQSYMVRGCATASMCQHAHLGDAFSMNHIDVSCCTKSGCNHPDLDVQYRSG
ENDPOINT_NAME: pKi
One number for each entry, as −log10 of the molar value.

O=C1c2ccccc2-c2onc3c(N4CCC(C(=O)NCCCOCCOCCOCCCNc5ccc([N+](=O)[O-])cc5[N+](=O)[O-])CC4)cc(Nc4cc(S(=O)(=O)O)ccc4S(=O)(=O)O)c1c23	7.28

Okay, next one:
Ask | Output pKi of "O=C1c2ccccc2-c2onc3c(N4CCC(C(=O)NCCCOCCOCCOCCCNc5ccc([N+](=O)[O-])cc5[N+](=O)[O-])CC4)cc(Nc4ccc(S(=O)(=O)O)cc4S(=O)(=O)O)c1c23"
Reply | 7.96

====

For each entry below, report its IC50 value.
biological target: recombinant uPAR (Homo sapiens, UniProt Q03405); experiment: Competitive ELISA uPAR binding assay (displacement of uPAR from immobilized urokinase); conditions: ELISA assay, competition with urokinase for recombinant uPAR
Numbers only, in nM.

Completed entries (count: 4):
O=C1c2ccccc2-c2onc3c(N4CCC(C(=O)NCCCOCCOCCOCCCNc5ccc([N+](=O)[O-])cc5[N+](=O)[O-])CC4)cc(Nc4ccc(Cl)cc4S(=O)(=O)O)c1c23	485
O=C1c2ccccc2-c2onc3c(N4CCC(C(=O)NCCCOCCOCCOCCCNc5ccc([N+](=O)[O-])cc5[N+](=O)[O-])CC4)cc(Nc4ccc(S(=O)(=O)O)cc4)c1c23	2360
O=C1c2ccccc2-c2onc3c(N4CCC(C(=O)NCCCOCCOCCOCCCNc5ccc([N+](=O)[O-])cc5[N+](=O)[O-])CC4)cc(Nc4ccc(S(=O)(=O)O)cc4S(=O)(=O)O)c1c23	544
CCOC(=O)c1cn(C)nc1Nc1cc(N2CCC(C(=O)NCCCOCCOCCOCCCNc3ccc([N+](=O)[O-])cc3[N+](=O)[O-])CC2)c2noc3c2c1C(=O)c1ccccc1-3	55200

Okay, next one:
Ask | Output IC50 of "COc1ccc(Nc2cc(N3CCC(C(=O)NCCCOCCOCCOCCCNc4ccc([N+](=O)[O-])cc4[N+](=O)[O-])CC3)c3noc4c3c2C(=O)c2ccccc2-4)c(S(=O)(=O)O)c1"
Reply | 540

====

For each entry below, report its pKi value.
biological target: recombinant uPAR (Homo sapiens, UniProt Q03405); experiment: Competitive ELISA uPAR binding assay (displacement of uPAR from immobilized urokinase); conditions: ELISA assay, competition with urokinase for recombinant uPAR
pKi: −log10 of the molar value.

Completed entries (count: 2):
O=C1c2ccccc2-c2onc3c(N4CCC(C(=O)NCCCOCCOCCOCCCNc5ccc([N+](=O)[O-])cc5[N+](=O)[O-])CC4)cc(Nc4ccc(Cl)cc4S(=O)(=O)O)c1c23	8.01
COC(=O)c1ccc(Nc2cc(N3CCC(C(=O)NCCCOCCOCCOCCCNc4ccc([N+](=O)[O-])cc4[N+](=O)[O-])CC3)c3noc4c3c2C(=O)c2ccccc2-4)cc1	< 5.70

Okay, next one:
Ask | Output pKi of "NS(=O)(=O)c1ccc(Nc2cc(N3CCC(C(=O)NCCCOCCOCCOCCCNc4ccc([N+](=O)[O-])cc4[N+](=O)[O-])CC3)c3noc4c3c2C(=O)c2ccccc2-4)cc1"
Reply | < 5.70

====

For each entry below, report its Ki value.
target: recombinant uPAR (Homo sapiens, UniProt Q03405); assay: Competitive ELISA uPAR binding assay (displacement of uPAR from immobilized urokinase); conditions: ELISA assay, competition with urokinase for recombinant uPAR

Completed entries (count: 2):
COC(=O)c1ccc(Nc2cc(N3CCC(C(=O)NCCCOCCOCCOCCCNc4ccc([N+](=O)[O-])cc4[N+](=O)[O-])CC3)c3noc4c3c2C(=O)c2ccccc2-4)c(Cl)c1	> 2000 nM
COC(=O)c1ccc(Nc2cc(N3CCC(C(=O)NCCCOCCOCCOCCCNc4ccc([N+](=O)[O-])cc4[N+](=O)[O-])CC3)c3noc4c3c2C(=O)c2ccccc2-4)c(C(=O)OC)c1	> 2000 nM

Okay, next one:
Ask | Output Ki of "COC(=O)c1cc(Nc2cc(N3CCC(C(=O)NCCCOCCOCCOCCCNc4ccc([N+](=O)[O-])cc4[N+](=O)[O-])CC3)c3noc4c3c2C(=O)c2ccccc2-4)nn1C"
Reply | > 2000 nM
